Measured on: T1, human CDH6 on tumor cells (OVCAR3 cells, PA-1 cells) (human, UniProt P55285 54-790)
T1 sequence: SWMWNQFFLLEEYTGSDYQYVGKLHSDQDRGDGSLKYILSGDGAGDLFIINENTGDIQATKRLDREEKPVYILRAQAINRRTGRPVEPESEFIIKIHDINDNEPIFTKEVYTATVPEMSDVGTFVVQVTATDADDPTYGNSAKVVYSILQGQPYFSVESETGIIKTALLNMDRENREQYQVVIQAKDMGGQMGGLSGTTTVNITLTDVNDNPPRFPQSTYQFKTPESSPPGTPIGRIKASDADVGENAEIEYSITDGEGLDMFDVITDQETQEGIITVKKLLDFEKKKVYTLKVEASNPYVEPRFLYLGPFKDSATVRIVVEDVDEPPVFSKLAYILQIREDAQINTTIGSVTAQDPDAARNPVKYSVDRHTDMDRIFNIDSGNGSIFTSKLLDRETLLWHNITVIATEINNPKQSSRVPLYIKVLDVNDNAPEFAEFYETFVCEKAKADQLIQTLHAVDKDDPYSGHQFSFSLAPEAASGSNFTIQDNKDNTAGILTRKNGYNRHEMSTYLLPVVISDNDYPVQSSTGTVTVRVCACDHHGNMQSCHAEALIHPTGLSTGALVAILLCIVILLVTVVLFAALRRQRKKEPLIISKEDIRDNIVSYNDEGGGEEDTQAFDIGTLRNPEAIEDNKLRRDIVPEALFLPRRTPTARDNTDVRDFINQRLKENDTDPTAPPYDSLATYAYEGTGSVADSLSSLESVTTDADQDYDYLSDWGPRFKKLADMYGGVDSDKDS
Measurement protocol: FACS, OVCAR3 cells, 4° C. arm of endocytosis assay, antibody diluted to 10 µg/mL
Protocol: OVCAR3 cells were cultured until a confluence of 90% was reached, the medium was removed by pipetting, the cells were washed once with PBS, and then treated with an enzyme-free cell dissociation solution (Versene, purchased from Gibco, Cat. No. 15040-066) and the cells were collected. The cells were washed once with PBS, counted, resuspended to 2×10⁶ cells/mL in an FACS buffer (PBS+2% FBS), and then added to two 96-well plates at 50 μL/well. […]
Property label: MFI_4° C.

binder="CHI-CDH6-13 (antibody, human IgG1, kappa, V domains shown, also called chimeric antibody of murine CDH6-13) VH: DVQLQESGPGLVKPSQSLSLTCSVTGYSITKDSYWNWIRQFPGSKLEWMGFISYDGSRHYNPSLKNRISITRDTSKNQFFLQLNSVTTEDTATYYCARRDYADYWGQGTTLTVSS VL: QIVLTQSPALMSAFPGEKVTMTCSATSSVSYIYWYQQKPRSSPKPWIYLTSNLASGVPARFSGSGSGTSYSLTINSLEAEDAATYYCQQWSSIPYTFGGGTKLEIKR" recorded_result="5970 MFI"
binder="CHI-CDH6-14 (antibody, human IgG1, kappa, V domains shown, also called CHI-hCDH6-14; CH1-CDH6-14) VH: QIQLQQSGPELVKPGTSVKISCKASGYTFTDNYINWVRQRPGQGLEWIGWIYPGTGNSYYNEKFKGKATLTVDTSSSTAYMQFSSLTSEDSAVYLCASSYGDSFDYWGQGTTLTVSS VL: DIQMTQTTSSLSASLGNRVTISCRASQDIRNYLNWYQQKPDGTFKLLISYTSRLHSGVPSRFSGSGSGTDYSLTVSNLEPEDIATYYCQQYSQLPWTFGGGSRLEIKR" recorded_result="9230 MFI"
binder="CHI-CDH6-3 (antibody, human IgG1, kappa, V domains shown, also called CH1-CDH6-3; chimeric antibody of murine CDH6-3) VH: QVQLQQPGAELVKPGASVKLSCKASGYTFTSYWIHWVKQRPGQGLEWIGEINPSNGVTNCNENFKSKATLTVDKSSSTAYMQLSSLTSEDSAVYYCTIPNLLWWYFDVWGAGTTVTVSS VL: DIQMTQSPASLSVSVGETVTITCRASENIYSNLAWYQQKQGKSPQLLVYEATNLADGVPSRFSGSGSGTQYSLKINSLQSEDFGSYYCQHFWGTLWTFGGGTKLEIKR" recorded_result="9280 MFI"
binder="CHI-CDH6-9 (antibody, human IgG1, kappa, V domains shown, also called chimeric antibody of murine CDH6-9) VH: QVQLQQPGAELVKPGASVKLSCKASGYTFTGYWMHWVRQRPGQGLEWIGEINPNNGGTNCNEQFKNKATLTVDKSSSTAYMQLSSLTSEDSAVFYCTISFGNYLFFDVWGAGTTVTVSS VL: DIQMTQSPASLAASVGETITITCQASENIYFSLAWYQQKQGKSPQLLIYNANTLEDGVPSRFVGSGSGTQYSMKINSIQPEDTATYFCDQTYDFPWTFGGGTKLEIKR" recorded_result="11000 MFI"
binder="CHI-CDH6-10 (antibody, human IgG1, kappa, V domains shown, also called chimeric antibody of murine CDH6-10) VH: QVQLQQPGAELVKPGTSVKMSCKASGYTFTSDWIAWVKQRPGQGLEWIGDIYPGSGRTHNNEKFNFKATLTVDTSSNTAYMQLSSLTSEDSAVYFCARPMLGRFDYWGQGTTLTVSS VL: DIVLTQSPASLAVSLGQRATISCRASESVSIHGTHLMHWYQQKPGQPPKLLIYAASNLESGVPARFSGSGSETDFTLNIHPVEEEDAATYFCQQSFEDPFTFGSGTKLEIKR" recorded_result="10100 MFI"
